Reference source: patent US20220185898A1

# Kd values compiled below
Biological target: T1, biotinylated mouse Sortilin monomer (mouse, UniProt Q6PHU5 74-754, limits assumed, biotinylated)
T1 construct: also called Bt-msSort
Experiment: ForteBio, Fab
Use nM as the unit, but write only the number.

S-15-3 Fab (Fab, V domains shown, Fab by papain digestion) VH: QVQLVQSGAEVKKPGASVKVSCKASGYTFTSTYMSWVRQAPGQGLEWMGIINPYGGSTSYAQKFQGRVTMTRDTSTSTVYMELSSLRSEDTAVYYCARDPSGIAAAGPASRYYYGMDVWGQGTTVTVSS VL: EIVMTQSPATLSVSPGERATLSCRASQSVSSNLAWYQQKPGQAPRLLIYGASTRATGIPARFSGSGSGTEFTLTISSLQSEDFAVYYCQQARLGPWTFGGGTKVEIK: 0.769

Query block: Dear colleague, please send me the reported Kd for S-22-7 Fab (Fab, V domains shown, Fab by papain digestion) VH: QVQLVQSGAEVKKPGSSVKVSCKASGGTFSSYAISWVRQAPGQGLEWMGGIIPGFGRANYAQKFQGRVTITADESTSTAYMELSSLRSEDTAVYYCARQGRKTGYYYYYGMDVWGQGTTVTVSS VL: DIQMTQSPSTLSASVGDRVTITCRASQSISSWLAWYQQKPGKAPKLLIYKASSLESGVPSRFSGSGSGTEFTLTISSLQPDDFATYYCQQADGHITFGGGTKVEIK when you can.
Result block: 0.751

Query block: Please supply the value of reported Kd for the item S-22-3 Fab (Fab, V domains shown, Fab by papain digestion) VH: QVQLVQSGAEVKKPGSSVKVSCKASGGTFRSYAISWVRQAPGQGLEWMGGIIPGFGTAWYAQKFQGRVTITADESTSTAYMELSSLRSEDTAVYYCARQGRKTGYYYYYGMDVWGQGTTVTVSS VL: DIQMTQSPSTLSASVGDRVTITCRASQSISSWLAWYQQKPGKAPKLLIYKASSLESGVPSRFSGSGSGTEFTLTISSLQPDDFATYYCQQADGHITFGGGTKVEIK
Result block: 1.43
